Target desc: human topoisomerase I (Homo sapiens, UniProt P11387)
Sequence (P11387 whole entry): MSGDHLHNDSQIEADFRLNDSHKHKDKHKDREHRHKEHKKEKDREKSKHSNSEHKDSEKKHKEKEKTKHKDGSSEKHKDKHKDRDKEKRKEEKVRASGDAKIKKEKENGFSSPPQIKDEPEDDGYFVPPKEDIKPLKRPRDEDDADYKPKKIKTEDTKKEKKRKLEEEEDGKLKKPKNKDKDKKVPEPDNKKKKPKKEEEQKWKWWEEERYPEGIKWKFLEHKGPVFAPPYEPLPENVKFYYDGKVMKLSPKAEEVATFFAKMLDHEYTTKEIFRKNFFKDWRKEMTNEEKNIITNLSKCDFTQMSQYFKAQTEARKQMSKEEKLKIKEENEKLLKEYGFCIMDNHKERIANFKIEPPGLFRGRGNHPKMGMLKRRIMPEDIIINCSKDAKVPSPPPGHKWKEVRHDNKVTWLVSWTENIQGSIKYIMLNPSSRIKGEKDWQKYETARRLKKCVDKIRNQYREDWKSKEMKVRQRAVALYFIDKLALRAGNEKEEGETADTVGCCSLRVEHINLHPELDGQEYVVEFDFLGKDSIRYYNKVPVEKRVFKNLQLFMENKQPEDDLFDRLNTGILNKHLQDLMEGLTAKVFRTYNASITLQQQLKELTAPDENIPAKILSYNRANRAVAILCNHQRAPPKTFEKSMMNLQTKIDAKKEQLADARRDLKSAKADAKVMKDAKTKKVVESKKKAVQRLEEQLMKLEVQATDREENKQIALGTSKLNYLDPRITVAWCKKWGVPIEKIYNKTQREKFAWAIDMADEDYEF
Experiment description: Topoisomerase I activity (in vitro): compound-induced, topoisomerase I-mediated single strand breaks in PM2 DNA
Particulars: purified human topoisomerase I (Topogen), 30 minutes at 37° C., median effective concentration for inducing single strand breaks, read-out: TOPO I EC50
Item-by-item account of pEC50
Please note pEC50 is a logarithmic value: minus log10 of concentration in mol/L. Answer with that number alone.

Before answering, review these 2 worked examples.
{"Compound": "O=C1NC(=O)c2c1c1c3cc(F)ccc3[nH]c1c1c2c2cc(F)ccc2n1[C@@H]1OC2COC(C2)C1O (stereo partly drawn) [Example 11]", "pEC50": 6.89}
{"Compound": "O=C1NC(=O)c2c1c1c3cc(F)ccc3sc1c1c2c2cc(F)ccc2n1[C@H]1O[C@@H]2CO[C@H]([C@H]1O)[C@@H]2O [Example 13]", "pEC50": 6.96}

Provide the reported pEC50 (system: human topoisomerase I (Homo sapiens, UniProt P11387)) for O=C1NC(=O)c2c1c1c3cc(F)ccc3[nH]c1c1c2c2cc(F)ccc2n1[C@@H]1OC2COC(C2O)C1O (stereo partly drawn) [Example 1] 7.07
